Data provenance is paper PMC5540273.

This listing pairs compounds with measured %Inh.
# System: RSK4(Kin.Dom.1-N-terminal)
# Construct: gene RPS6KA6
# conditionSet: concentration: 1 μM, replicates: in singlicate; n = 1;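 note: KINOMEscan kinase panel screen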
Please respond with the number in % and leave the unit unwritten.

# count of solved cases: 5
[[record]]
compound = "O=C(Nc1ccccc1F)NC1CCN(c2ccnc(Nc3ccc(F)cc3)n2)CC1 [GSK1379800]"
valuereported = 0

[[record]]
compound = "c1ccc(-c2n[nH]cc2Nc2ccnc3ccccc23)nc1 [GW694077]"
valuereported = 1

[[record]]
compound = "NCCCC(NC(=O)c1cc(Br)c(-c2ccnc3[nH]ccc23)s1)c1ccccc1.O=C(O)C(F)(F)F.O=C(O)C(F)(F)F (centres unmarked) [GSK1287544]"
valuereported = 8

[[record]]
compound = "CN(C)S(=O)(=O)c1cc(-c2ccc3nccc(-c4cccc(S(N)(=O)=O)c4)c3c2)cnc1N [GSK1669921]"
valuereported = 2

[[record]]
compound = "Cl.c1ccc(-c2ccc3c(Nc4ccc5[nH]ncc5c4)ccnc3c2)nc1 [GW440137]"
valuereported = 0


Q: Quick one: %Inh for CN(C)Cc1ccc(-c2ccc3c(Nc4ccc(Oc5ccccn5)cc4)ccnc3c2)o1 [GW567148] ?
Ans: 17

Q: For Cc1ccc(S(=O)(=O)Nc2ccc(Nc3nccc(Nc4cccc5[nH]ncc45)n3)cc2)cc1 [GSK581271] then?
Ans: 0

Q: For CC(C)(C)c1ccc2nccc(Nc3cccc(O)c3)c2c1 [GW856795] then?
Ans: 0

Q: For CSc1cccc2c(-c3ccncn3)c(-c3ccc(F)cc3)nn12 [GW514786] then?
Ans: 0

Q: For COc1cccc(C2=C(Nc3ccc(Cl)c(C(=O)O)c3)C(=O)NC2=O)c1 [SB-390769] then?
Ans: 100

Q: For Cl.c1ccc(-c2ccc3c(Nc4ccc5[nH]ccc5c4)ccnc3c2)nc1 [GW440138] then?
Ans: 0

Q: For COc1cc2c(cc1OCCN1CCNCC1)ncc1c3ccc(C#N)cc3[nH]c21 then?
Ans: 73

Q: For CN1CCN(CCCNc2nccc(-c3c(-c4ccc(F)cc4)nn4cc(C(F)(F)F)ccc34)n2)CC1 [GW621581] then?
Ans: 0

Q: For CC(=O)N1CCN(c2ccc(Nc3nccc(-c4sc(C(C)C)nc4-c4cccc(NS(=O)(=O)c5cccc(Cl)c5)c4)n3)cn2)CC1 [GSK1660437] then?
Ans: 0

====

# System: EPHA1
# conditionSet: concentration: 1 μM, replicates: in singlicate; n = 1
quantityMeasured: %Inh (%)
Please respond with the number in % and leave the unit unwritten.

# count of solved cases: 3
[[record]]
molecule = "O=C(Nc1cccc(Oc2ccc3nc(NC(=O)C4CC4)cn3n2)c1)c1ccccc1C(F)(F)F"
quantitymeasured = "%Inh"
readoutunits = "%"
valuereported = 35

[[record]]
molecule = "CC(=O)Nc1nc2cnc(Nc3cc(NC(=O)c4cccc(C5(C#N)CC5)c4Cl)ccc3C)nc2s1"
quantitymeasured = "%Inh"
readoutunits = "%"
valuereported = 70

[[record]]
molecule = "Cl.NC(=O)c1cccc(Nc2nccc(Nc3ccc(Oc4c(Cl)cccc4Cl)c(Cl)c3)n2)c1 [GW659009]"
quantitymeasured = "%Inh"
readoutunits = "%"
valuereported = 0


Q: Find the measured %Inh: item NCCCC(NC(=O)c1cc(Br)c(-c2ccnc3[nH]ccc23)s1)c1ccccc1.O=C(O)C(F)(F)F.O=C(O)C(F)(F)F (stereo not shown) [GSK1287544] , target or system EPHA1.
Ans: 6

Q: For COc1cc(Nc2ncc3c(C)nc(-c4cc5ccccc5[nH]4)n3n2)cc(OC)c1OC [GW869516] then?
Ans: 41

Q: For Fc1ccc(-c2ncn(C3CCNCC3)c2-c2ccnc(Oc3ccc(-c4ccccc4)cc3)n2)cc1 [SB-245391] then?
Ans: 19

Q: For COc1ccc(Nc2nccc(NCCNC(=O)c3cc4ccccc4s3)n2)cc1 [GSK1379896] then?
Ans: 0

Q: For Cl.Cl.NCC(NCc1ccc(-c2ccnc3[nH]ccc23)s1)c1ccccc1 (stereo not shown) [GSK1321565] then?
Ans: 24

Q: For O=C(Nc1ccccc1F)NC1CCN(c2ccnc(Nc3ccc(F)cc3)n2)CC1 [GSK1379800] then?
Ans: 0

====

# Test system: NDR1
# Construct: gene STK38
# conditionSet: concentration: 1 μM, replicates: in singlicate; n = 1
This listing pairs molecules with measured %Inh.
// return the numeric value with its unit appended

# count of solved cases: 5
[[record]]
molecule = "Oc1cc(Nc2ccnc3cc(I)ccc23)ccc1F [GW552771]"
valuereported = "0%"

[[record]]
molecule = "O=C(Nc1cccc(Oc2ccc3nc(NC(=O)C4CC4)cn3n2)c1)c1ccccc1C(F)(F)F"
valuereported = "26%"

[[record]]
molecule = "O=C(Nc1ccccc1F)NC1CCN(c2ccnc(Nc3ccc(F)cc3)n2)CC1 [GSK1379800]"
valuereported = "7%"

[[record]]
molecule = "CNC(=O)c1ccccc1Nc1nc(Nc2ccc(N3CCOCC3)cc2)ncc1Cl.Cl [GSK1576028]"
valuereported = "97.9%"

[[record]]
molecule = "O=C(Nc1n[nH]c2nc(-c3ccc(O)cc3)ccc12)C1CC1 [SB-710363]"
valuereported = "0%"


Q: Quick one: %Inh for O=C(Nc1cccc(-c2nn3ncccc3c2-c2ccnc(Nc3ccccc3)n2)c1)c1c(F)cccc1F [GSK198271] ?
Ans: 11%

Q: For Cc1cccc(NC(=O)Nc2ccc(Oc3ncnc4ccn(C)c34)cc2)c1 then?
Ans: 30%

Q: For CN1CCN(CCCNc2nccc(-c3c(-c4ccc(F)cc4)nn4cc(C(F)(F)F)ccc34)n2)CC1 [GW621581] then?
Ans: 10%

====

# System: CAMKK1
# conditionSet: concentration: 1 μM, replicates: in singlicate; n = 1
This listing pairs molecules with measured %Inh.
Please respond with the number in % and leave the unit unwritten.

[[record]]
molecule = "O=C(Nc1cccc(Oc2ccc3nc(NC(=O)C4CC4)cn3n2)c1)c1ccccc1C(F)(F)F"
quantitymeasured = "%Inh"
valuereported = 1

[[record]]
molecule = "Cn1cc(-c2ccc3c(c2)CCN3C(=O)Cc2cccc(Cl)c2)c2c(N)ncnc21"
quantitymeasured = "%Inh"
valuereported = 19

[[record]]
molecule = "COc1cccc(C(=O)Nc2cccc(Oc3ccc4nc(NC(=O)C5CC5)cn4n3)c2)c1"
quantitymeasured = "%Inh"
valuereported = 6

[[record]]
molecule = "COc1ccc(-c2coc3ccc(-c4nnc(SCc5ccc(OC)c(C(F)(F)F)c5)o4)cc23)cc1"
quantitymeasured = "%Inh"
valuereported = 1

[[record]]
molecule = "CNC(=O)c1ccccc1Nc1nc(Nc2ccc(N3CCOCC3)cc2)ncc1Cl.Cl"
quantitymeasured = "%Inh"
valuereported = 93.2


Q: Quick one: %Inh for Nc1ncnc2c1nc(-c1ccccc1)n2-c1ccccc1 ?
Ans: 0

Q: For Cl.Cl.NCC(C(=O)Nc1cc(Br)c(-c2ccnc3[nH]ccc23)s1)c1ccccc1 (stereo not shown) then?
Ans: 8

====

# System: ROCK1
# conditionSet: concentration: 1 μM, replicates: in singlicate; n = 1
This listing pairs compounds with measured %Inh.
Please respond with the number in % and leave the unit unwritten.

# count of solved cases: 3
[[record]]
mol = "Cl.c1ccc(-c2ccc3c(Nc4ccc5[nH]ncc5c4)ccnc3c2)nc1"
targetorsystem = "ROCK1"
quantitymeasured = "%Inh"
readoutunits = "%"
valuereported = 10

[[record]]
mol = "CCn1c(-c2nonc2N)nc2c(C#CC(C)(C)O)nc(OC[C@H](N)c3ccccc3)cc21"
targetorsystem = "ROCK1"
quantitymeasured = "%Inh"
readoutunits = "%"
valuereported = 59

[[record]]
mol = "c1ccc(-c2n[nH]cc2Nc2ccnc3ccccc23)nc1"
targetorsystem = "ROCK1"
quantitymeasured = "%Inh"
readoutunits = "%"
valuereported = 98.2


Q: Find the measured %Inh: item CSc1cccc2c(-c3ccncn3)c(-c3ccc(F)cc3)nn12 , target or system ROCK1.
Ans: 13

Q: For COc1cc2c(cc1OCCN1CCNCC1)ncc1c3ccc(C#N)cc3[nH]c21 then?
Ans: 99.2

Q: For CN1CCN(CCCNc2nccc(-c3c(-c4ccc(F)cc4)nn4cc(C(F)(F)F)ccc34)n2)CC1 then?
Ans: 0

Q: For O=C(Nc1n[nH]c2nc(-c3ccc(O)cc3)ccc12)C1CC1 then?
Ans: 0

Q: For O=c1[nH]cc(-c2ccc(N3CCOCC3)cc2)c2sc(-c3cn[nH]c3)cc12 then?
Ans: 0

====

# Test system: LRRK2
# conditionSet: concentration: 1 μM, replicates: in singlicate; n = 1
quantityMeasured: %Inh (%)
Please respond with the number in % and leave the unit unwritten.

[[record]]
molecule = "O=C(Nc1cccc(-c2nn3ccccc3c2-c2ccnc(Nc3cccc(C(F)(F)F)c3)n2)c1)c1c(F)cccc1F"
quantitymeasured = "%Inh"
valuereported = 1


Q: Find the measured %Inh: item Cl.Cl.NCC(NC(=O)c1cc(-c2ccccc2)c(-c2ccnc3[nH]ccc23)s1)c1ccccc1 (centres unmarked) , target or system LRRK2.
Ans: 0

Q: For COc1cc(Nc2nccc(-c3c(-c4cccc(NC(=O)c5c(F)cccc5F)c4)nn4ccccc34)n2)cc(OC)c1OC then?
Ans: 0

Q: For COc1ccc(CNC(=O)NC2CCN(c3ccnc(Nc4ccc(F)cc4)n3)CC2)cc1 then?
Ans: 0

Q: For COc1cc2c(cc1OCCN1CCNCC1)ncc1c3ccc(C#N)cc3[nH]c21 then?
Ans: 99.3

Q: For CCn1c(-c2nonc2N)nc2c(C#CC(C)(C)O)nc(OC[C@H](N)c3ccccc3)cc21 then?
Ans: 14

Q: For Cc1ccc(S(=O)(=O)Nc2ccc(Nc3nccc(Nc4cccc5[nH]ncc45)n3)cc2)cc1 then?
Ans: 23

Q: For O=c1[nH]cc(-c2ccc(N3CCOCC3)cc2)c2sc(-c3cn[nH]c3)cc12 then?
Ans: 0
